Tested on: HCC-2998
Assay: NCI one-dose screening, colon cancer HCC-2998
Format: cell-based, human
Conditions: HCC-2998, 10 μM
For each record, write down the corresponding Growth Percent (10 μM).
Only the number, expressed in %, is required.

input: Answer with the recorded Growth Percent (10 μM) for the compound listed here: O=C1c2ccccc2C(=O)c2c1cc(N1CCCC1)c1nsnc21
output: 104.58

input: Answer with the recorded Growth Percent (10 μM) for the compound listed here: CC(C)Sc1cc2c(c3nsnc13)C(=O)c1ccccc1C2=O
output: 21.00

input: Answer with the recorded Growth Percent (10 μM) for the compound listed here: Cc1ccc(Nc2cc3c(c4nsnc24)C(=O)c2ccccc2C3=O)cc1
output: 95.82

input: Answer with the recorded Growth Percent (10 μM) for the compound listed here: CN(C)CCNc1cc2c(c3nsnc13)C(=O)c1ccccc1C2=O
output: −86.18
